Tested on: Escherichia coli
Test: Inhibition of Escherichia coli beta-glucuronidase using p-nitrophenyl glycoside as substrate assessed as release of p-nitrophenol at 1000 uM by spectrometric analysis relative to control
Listing: inhibition of selected molecules

As a guide, the following entries are already answered.
O[C@H]1[C@H]2[C@H](O)C[C@H](F)CN2C[C@H]1O :: 11.3%
O[C@@H]1[C@@H]2[C@H](O)CC(F)(F)CN2C[C@@H]1O :: 0%
O[C@@H]1[C@@H]2[C@H](O)CCCN2C[C@@H]1O :: 0%
O[C@@H]1[C@@H]2[C@@H](O)CCCN2C[C@@H]1O :: 11.3%
O[C@H]1[C@H]2[C@@H](O)C[C@@H](F)CN2C[C@H]1O :: 4.1%
O[C@H]1[C@H]2[C@@H](O)C[C@H](F)CN2C[C@H]1O :: 0%

According to the records, this molecule O[C@H]1[C@H]2[C@H](O)CC(F)(F)CN2C[C@H]1O displays inhibition of 0%

Recorded result, O[C@H]1[C@H]2[C@H](O)C[C@@H](F)CN2C[C@H]1O , inhibition: 0%

Field inhibition (entry O[C@@H]1[C@@H]2[C@@H](O)C[C@H](F)CN2C[C@@H]1O ) reads 9.3%

inhibition reported for this molecule O[C@H]1[C@H]2[C@H](O)CCCN2C[C@H]1O : 0%
